Molecular target: purified HLA DRB4*0101 (Homo sapiens, UniProt P01903+P13762, G164S)
Construct: purified from EBV transformed homozygous cell lines or single MHC allele transfected 721.221, C1R, or fibroblast lines; made in house
Assay: HLA-DR radioligand binding inhibition assay, DRB4*0101
Settings: IC50 nM purified HLA DRB4 *0101, purified HLA DRB4*0101
Experimental: Instead, wells of an opaque white 96-well Optiplate (Packard) are coated with 3 μg (100 μl@ 30 μg/ml) of HLA-specific antibody (Ab) that “capture” complexes of radiolabeled MHC and unlabeled peptide transferred from the molecular binding assay plate in 100 μl of 0.05% NP40/PBS. […] Captured complexes are then measured on a microplate scintillation and luminescence counter (TopCount NXTTM; Packard). […]
measure: IC50 (nM)
The response must be a number in nM with no trailing unit.

These recorded examples may help you get a feel for the data.
CC[C@H](C)[C@H](NC(=O)[C@H](CS)NC(=O)[C@H](CC(C)C)NC(=O)[C@@H](N)CCCCN)C(=O)N[C@@H](Cc1ccc(O)cc1)C(=O)N[C@H](C(=O)N[C@@H](CC(=O)O)C(=O)N[C@@H](CC(N)=O)C(=O)N[C@@H](CO)C(=O)N[C@H](C(=O)N[C@@H](CCCNC(=N)N)C(=O)N1CCC[C@H]1C(=O)N[C@@H](CCC(=O)O)C(=O)N[C@@H](CCC(=O)O)C(=O)N[C@@H](CC(C)C)C(=O)O)[C@@H](C)CC)[C@@H](C)O [Peptide 9019.0159]; 33
CC[C@H](C)[C@H](NC(=O)[C@H](CCCNC(=N)N)NC(=O)[C@H](Cc1c[nH]c2ccccc12)NC(=O)[C@H](CO)NC(=O)[C@H](Cc1ccc(O)cc1)NC(=O)[C@@H](N)CCC(N)=O)C(=O)N[C@@H](CC(N)=O)C(=O)NCC(=O)N[C@H](C(=O)N1CCC[C@H]1C(=O)N[C@@H](CCC(N)=O)C(=O)N[C@@H](CCC(N)=O)C(=O)N[C@@H](Cc1c[nH]cn1)C(=O)N[C@H](C(=O)N[C@@H](CCC(N)=O)C(=O)O)[C@@H](C)O)[C@@H](C)CC [Peptide 9019.0138]; 2290
CC(C)C[C@H](NC(=O)[C@H](CC(N)=O)NC(=O)[C@H](C)NC(=O)CNC(=O)[C@H](CO)NC(=O)[C@H](CC(C)C)NC(=O)[C@H](Cc1ccc(O)cc1)NC(=O)[C@H](CO)NC(=O)[C@@H](N)CO)C(=O)N[C@@H](CC(N)=O)C(=O)N[C@@H](CC(C)C)C(=O)N[C@@H](CO)C(=O)N[C@@H](CS)C(=O)N[C@@H](Cc1c[nH]cn1)C(=O)N[C@@H](CO)C(=O)O [Peptide 9019.0137]; 42
CC[C@H](C)[C@H](N)C(=O)N[C@@H](CO)C(=O)N[C@@H](C)C(=O)N[C@H](C(=O)N[C@H](C(=O)NCC(=O)N[C@H](C(=O)N[C@@H](CC(C)C)C(=O)N[C@@H](CC(C)C)C(=O)N[C@H](C(=O)N[C@H](C(=O)N[C@H](C(=O)N[C@@H](CC(C)C)C(=O)NCC(=O)N[C@H](C(=O)O)C(C)C)C(C)C)C(C)C)C(C)C)[C@@H](C)CC)C(C)C)C(C)C [Peptide 9019.0067]; 3110

API: the following record is the query input.
[ask] Using purified HLA DRB4*0101 (Homo sapiens, UniProt P01903+P13762, G164S) as the test system, report measured IC50 of CC[C@H](C)[C@H](NC(=O)[C@H](CCSC)NC(=O)[C@H](Cc1c[nH]c2ccccc12)NC(=O)[C@H](CS)NC(=O)[C@H](CCCCN)NC(=O)[C@@H](NC(=O)[C@H](CCSC)NC(=O)[C@@H](NC(=O)[C@H](CCSC)NC(=O)[C@H](Cc1ccc(O)cc1)NC(=O)[C@@H](NC(=O)[C@@H](N)CC(=O)O)C(C)C)[C@@H](C)CC)C(C)C)C(=O)N[C@@H](CC(=O)O)C(=O)N[C@@H](CO)C(=O)N[C@@H](CCC(=O)O)C(=O)O [Peptide 9019.0094] .
[reply] 607
